# procedure details: Acute toxicity test
# measurement parameters: ddy, mouse, in vivo, ip; male mice, i.p., mortality observed for 7 days; read-out: 50% lethal dose (LD50, mg/kg, i.p.)
endpoint label: LD50 at 7 days (mg/kg)
Note: unit mg/kg is implicit; provide only the numeric part.

**Query** Tell me its LD50 at 7 days given COc1ccc(CCN2CCC[C@@H]2CN2c3ccccc3COc3ccccc32)cc1.Cl [Example 2] as the entry.
**Result** 175

**Query** Tell me its LD50 at 7 days given COc1ccc(CCN2CCC[C@H]2CN2c3ccccc3CSc3ccccc32)cc1.Cl [Compound A, reference compound] as the entry.
**Result** 162

###

# Tested on: tail artery pressure
# procedure details: Decrease in the blood pressure in rats (tail cuff method)
# Type: in vivo
# measurement parameters: rat, dose causing 20 mmHg decrease in blood pressure 1 hour after administration
Exercise: for every item that follows, state its recorded Hypotensive effect (ED20, mg/kg, p.o.).

**Query** Tell me its Hypotensive effect (ED20, mg/kg, p.o.) given Cl.Fc1ccc(CCN2CCC[C@@H]2CN2c3ccccc3COc3ccccc32)cc1 as the entry.
**Result** >1000 mg/kg

**Query** Tell me its Hypotensive effect (ED20, mg/kg, p.o.) given COC(=O)C1=C(C)NC(C)=C(C(=O)OCCN(C)Cc2ccccc2)C1c1cccc([N+](=O)[O-])c1 (stereo not shown) [nicardipine, reference compound] as the entry.
**Result** 4.0 mg/kg

**Query** Tell me its Hypotensive effect (ED20, mg/kg, p.o.) given COc1ccc(CCN2CCC[C@H]2CN2c3ccccc3CSc3ccccc32)cc1.Cl [Compound A, reference compound] as the entry.
**Result** >100 mg/kg

**Query** Tell me its Hypotensive effect (ED20, mg/kg, p.o.) given COc1ccc(CCN2CCC[C@@H]2CN2c3ccccc3COc3ccccc32)cc1.Cl as the entry.
**Result** >1000 mg/kg

###

Exercise: for every item that follows, state its recorded Inhibitory effect on WRS-induced defecation (ID50, mg/kg, p.o.).
# Test system: WRS-induced defecation
# procedure details: Inhibition of acceleration of stool excretion in a wrap restraint stress (WRS) model
# Type: in vivo
# measurement parameters: rat, p.o. 30 minutes before stress, stool over 1 hour, Litchfield-Wilcoxon method
Note: unit mg/kg is implicit; provide only the numeric part.

**Query** Tell me its Inhibitory effect on WRS-induced defecation (ID50, mg/kg, p.o.) given Cl.Fc1ccc(CCN2CCC[C@@H]2CN2c3ccccc3COc3ccccc32)cc1 [Example 4] as the entry.
**Result** 1.8

**Query** Tell me its Inhibitory effect on WRS-induced defecation (ID50, mg/kg, p.o.) given COc1ccc(CCN2CCC[C@@H]2CN2c3ccccc3COc3ccccc32)cc1.Cl [Example 2] as the entry.
**Result** 3.1

**Query** Tell me its Inhibitory effect on WRS-induced defecation (ID50, mg/kg, p.o.) given COC(=O)C1=C(C)NC(C)=C(C(=O)OCCN(C)Cc2ccccc2)C1c1cccc([N+](=O)[O-])c1 (stereo not shown) [nicardipine, reference compound] as the entry.
**Result** 6.8

**Query** Tell me its Inhibitory effect on WRS-induced defecation (ID50, mg/kg, p.o.) given COc1ccc(CCN2CCC[C@H]2CN2c3ccccc3CSc3ccccc32)cc1.Cl [Compound A, reference compound] as the entry.
**Result** 34.8

These entries and their values trace back to patent US6436922B1.
